Source listed as paper PMC10314895.

# experimental_system: BRD4 (Homo sapiens)
# method_notes: BromoKd affinity assay (Eurofins Discovery)
# Format: binding
pKd: −log10 of the molar value.
reported_endpoint: pKd

Q: Quick one: pKd of COCCOC(=O)C1=C(C)NC2=C(C(=O)CC(c3ccccc3OC)C2)C1c1cccc(O)c1 (stereo not shown) [HPI-1] ?
Ans: ~7.82
